molecular target: SARS-COV2-S1 RBD (mouse IgG2Fc tag) (SARS-CoV-2, UniProt P0DTC2 319-537); experiment: FACS, S1 RBD-mFc on Vero E6 (ACE2)
Some binders, each annotated with its measured Competition Factor.

binder	Competition Factor
variant 5-1 (Fc fusion, VHH-Fc) VHH: EVQLVESGGGLVQPGGSLRLSCAASGGTFSSIGMGWFRQAPGKEREFVAAISWDGGATAYADSVKGRFTISADNSKNTAYLQMNSLKPEDTAVYYCAKEDVGKPFDWGQGTLVTVSS	10
variant 5-20 (Fc fusion, VHH-Fc) VHH: EVQLVESGGGLVQPGGSLRLSCAASGRTIVPYTMGWFRQAPGKERELVAAISPSAFTEYADSVKGRFTISADNSKNTAYLQMNSLKPEDTAVYYCAARRWGYDWGQGTLVTVSS	12.4
variant 5-37 (Fc fusion, VHH-Fc) VHH: EVQLVESGGGLVQPGGSLRLSCAASGSTFSINAMGWFRQAPGKEREFVGGISRSGATTNYADSVKGRFTISADNSKNTAYLQMNSLKPEDTAVYYCAADGVPEYSDYASGPVWGQGTLVTVSS	8.19
variant 6-78 (Fc fusion, VHH-Fc) VHH: EVQLVESGGGLVQPGGSLRLSCAASGRTYDAMGWFRQAPGKEREFVASVTSGGYTHYADSVKGRFTISADNSKNTAYLQMNSLKPEDTAVYYCAKFGRKIVGATELDYWGQGTLVTVSS	9.27
